Source of measurements: patent US20130123460A1

Target: endogenous GLP-1 receptor (Mus musculus)
Construct: expressing an endogenous GLP-1 receptor; endogenous in cells; host or cells: MIN 6 mouse insulinoma cells (obtained from a person)
Assay: Insulin secretion capacity of GLP-1 peptide complex in MIN 6 cells
Format: cell-based
pEC50: −log10 of the molar value. Where no end group is shown, it is not given here.
Measurement label: pEC50

substance="HSEGTFTSDVSSYLEGQAAKEFIAWLVKGVSDYYKNLINNAKTVEGVKALIDEILAALP-NH2 [Comparative Example 5, [Ser8]-GLP-1(7-35)-GAm(17-46)-NH2, reference compound]" target="endogenous GLP-1 receptor (Mus musculus)" assay_value="< 9.00"

====

Parameter: remaining at 48 h, 0.5 μmol/L. Scope: all listed entries.
Assay: Plasma stability of VIP peptide complex (remaining rate in rat plasma)
Type: in vitro ADME, SD rats
Settings: SD, VIP complexes, 37° C., 48 hours, read-out: Remaining rate in plasma after 48 hours
Where no end group is shown, it is not given here.
Measurement label: remaining at 48 h, 0.5 μmol/L (%)

substance="HSDAVFTDNYTRLRKQMAVKKYLNSILNAKTVEGVKALIDEILAA-NH2 [Example 27, VIP(1-28)-GAm(28-44)-NH2]" unit_info=% assay_value=35
substance="HSDAVFTDNYTRLRKQMAVKKYLNSILNEGVKALIDEILAA-NH2 [Example 26, VIP(1-28)-GAm(32-44)-NH2]" unit_info=% assay_value=47

====

Assay: Plasma stability of GLP-1 peptide complex (remaining rate in rat plasma, HPLC/MS)
Type: in vitro ADME, SD rats
Conditions: SD, rat, plasma
Where no end group is shown, it is not given here.
Parameter: remaining at 8 h, 0.5 μmol/L. Scope: all listed entries.
Measurement label: remaining at 8 h, 0.5 μmol/L (%)

substance="HSEGTFTSDVSSYLEGQAAKEFIAWLVKGAKTVEGVKAL-NH2 [Comparative Example 8, [Ser8]-GLP-1(7-35)-GAm(28-37)-NH2, reference compound]" unit_info=% assay_value=27
substance="HSEGTFTSDVSSYLEGQAAKEFIAWLVKGKALIDEILAA-NH2 [Example 4, [Ser8]-GLP-1(7-35)-GAm(35-44)-NH2]" unit_info=% assay_value=77
substance="HSEGTFTSDVSSYLEGQAAKEFIAWLVKGAKTVEGVKALIDEILAA [Example 18, [Ser8]-GLP-1(7-35)-GAm(28-44)]" unit_info=% assay_value=99

====

Parameter: Insulin secretion capacity (% of control). Scope: all listed entries.
Molecular target: endogenous GLP-1 receptor (Mus musculus, UniProt O35659)
Construct: expressing an endogenous GLP-1 receptor; endogenous in cells; host or cells: MIN 6 mouse insulinoma cells (obtained from a person)
Sequence (O35659 22-463): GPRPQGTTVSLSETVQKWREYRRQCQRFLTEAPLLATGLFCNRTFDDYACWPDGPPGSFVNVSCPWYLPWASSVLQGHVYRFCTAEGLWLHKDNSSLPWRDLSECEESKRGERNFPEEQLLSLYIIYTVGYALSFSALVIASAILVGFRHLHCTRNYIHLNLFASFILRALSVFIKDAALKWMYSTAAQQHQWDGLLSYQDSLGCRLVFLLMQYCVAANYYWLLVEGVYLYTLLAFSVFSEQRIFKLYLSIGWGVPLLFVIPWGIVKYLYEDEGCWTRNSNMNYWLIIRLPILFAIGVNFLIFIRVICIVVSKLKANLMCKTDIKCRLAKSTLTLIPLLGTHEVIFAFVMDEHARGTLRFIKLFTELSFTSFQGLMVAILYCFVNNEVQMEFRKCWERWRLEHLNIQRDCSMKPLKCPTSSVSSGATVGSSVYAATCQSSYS
Test: Insulin secretion capacity of GLP-1 peptide complex in MIN 6 cells
Type: cell-based
Settings: MIN 6 cells, 1000 pM, 15 mM glucose; control = native GLP-1 at 1000 pM
Where no end group is shown, it is not given here.
Measurement label: Insulin secretion capacity (% of control)

substance="HSEGTFTSDVSSYLEGQAAKEFIAWLVKGINNAKTVEGVKALIDEILAALP-NH2 [Example 16, [Ser8]-GLP-1(7-35)-GAm(25-46)-NH2]" target="endogenous GLP-1 receptor (Mus musculus, UniProt O35659)" assay_value=104%
substance="HSEGTFTSDVSSYLEGQAAKEFIAWLVKGVEGVKALIDEILAA-NH2 [Example 11, [Ser8]-GLP-1(7-35)-GAm(31-44)-NH2]" target="endogenous GLP-1 receptor (Mus musculus, UniProt O35659)" assay_value=83%
substance="HSEGTFTSDVSSYLEGQAAKEFIAWLVKGAKTVEGVKALIDEILAA [Example 18, [Ser8]-GLP-1(7-35)-GAm(28-44)]" target="endogenous GLP-1 receptor (Mus musculus, UniProt O35659)" assay_value=139%
substance="HAEGTFTSDVSSYLEGQAAKEFIAWLVKGGVKALIDEILA-NH2 [Example 7, GLP-1(7-35)-GAm(33-43)-NH2]" target="endogenous GLP-1 receptor (Mus musculus, UniProt O35659)" assay_value=105%
substance="HSEGTFTSDVSSYLEGQAAKEFIAWLVKGYKNLINNAKTVEGVKALIDEILAALP-NH2 [Comparative Example 6, [Ser8]-GLP-1(7-35)-GAm(21-46)-NH2, reference compound]" target="endogenous GLP-1 receptor (Mus musculus, UniProt O35659)" assay_value=45%
substance="HAEGTFTSDVSSYLEGQAAKEFIAWLVKGGPSGVKALIDEILAA-NH2 [Example 24, GLP-1(7-35)-Gly-Pro-Ser-GAm(33-44)-NH2]" target="endogenous GLP-1 receptor (Mus musculus, UniProt O35659)" assay_value=123%
substance="HSEGTFTSDVSSYLEGQAAKEFIAWLVKGAKTVEGVKALIDEIL-NH2 [Example 13, [Ser8]-GLP-1(7-35)-GAm(28-42)-NH2]" target="endogenous GLP-1 receptor (Mus musculus, UniProt O35659)" assay_value=105%
substance="HSEGTFTSDVSSYLEGQAAKEFIAWLVKGKALIDEILAA-NH2 [Example 4, [Ser8]-GLP-1(7-35)-GAm(35-44)-NH2]" target="endogenous GLP-1 receptor (Mus musculus, UniProt O35659)" assay_value=115%

====

Parameter: Insulin secretion capacity (% of control). Scope: all listed entries.
Molecular target: endogenous GLP-1 receptor (Mus musculus, UniProt O35659)
Construct: expressing an endogenous GLP-1 receptor; endogenous in cells; host or cells: MIN 6 mouse insulinoma cells (obtained from a person)
Assay: Insulin secretion capacity of GLP-1 peptide complex in MIN 6 cells;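 also: insulin released into the supernatant of MIN 6 cultures quantified by ELISA, absorbance read at 450 nm with 620 nm reference after substrate addition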
Assay type: cell-based
Conditions: MIN 6 cells, 1000 pM, 15 mM glucose; control = native GLP-1 at 1000 pM
Where no end group is shown, it is not given here.
Measurement label: Insulin secretion capacity (% of control) (%)

substance="HAEGTFTSDVSSYLEGQAAKEFIAWLVKGGPVKALIDEILAA-NH2 [Example 22, GLP-1(7-35)-Gly-Pro-GAm(34-44)-NH2]" assay_value=99
substance="HSEGTFTSDVSSYLEGQAAKEFIAWLVKGGVKALIDEILAA-NH2 [Example 9, [Ser8]-GLP-1(7-35)-GAm(33-44)-NH2]" assay_value=118
substance="HSEGTFTSDVSSYLEGQAAKEFIAWLVKGGVKALIDEILAA [Example 19, [Ser8]-GLP-1(7-35)-GAm(33-44)]" assay_value=89
substance="HSEGTFTSDVSSYLEGQAAKEFIAWLVKGTVEGVKALIDEIL-NH2 [Example 12, [Ser8]-GLP-1(7-35)-GAm(30-42)-NH2]" assay_value=85
substance="HSEGTFTSDVSSYLEGQAAKEFIAWLVKGNAKTVEGVKALIDEILAALP-NH2 [Example 15, [Ser8]-GLP-1(7-35)-GAm(27-46)-NH2]" assay_value=106
substance="HAEGTFTSDVSSYLEGQAAKEFIAWLVKGGPKALIDEILAA-NH2 [Example 21, GLP-1(7-35)-Gly-Pro-GAm(35-44)-NH2]" assay_value=103

====

Assay: Plasma stability of amylin complex (remaining rate in rat plasma)
Type: in vitro ADME, SD rats
Conditions: SD, rat, plasma
Bridges are numbered along the chain shown (N, C = ends). Where no end group is shown, it is not given here.
Measurement label: remaining at 2 h, 0.5 μmol/L (%)

substance="AKTVEGVKALIDEILAAKCNTATCATQRLANFLVHSSNNFGAILSSTNVGSNTY-NH2 (disulfide 19-24) [Example 30, GAm(28-44)-Amylin(1-37)-NH2]" measurement_label="remaining at 2 h, 0.5 μmol/L" unit_info=% assay_value=67

====

Test: Plasma stability of somatostatin peptide complex (remaining rate in rat plasma)
Conditions: SD, rat, plasma
Measurement label: remaining at 8 h, 0.5 μmol/L (%)

compound="C[C@H](N)C(=O)NCC(=O)N[C@H]1CSSC[C@@H](C(N)=O)NC(=O)[C@H](CO)NC(=O)[C@H]([C@@H](C)O)NC(=O)[C@H](Cc2ccccc2)NC(=O)[C@H]([C@@H](C)O)NC(=O)[C@H](CCCCN)NC(=O)[C@H](Cc2c[nH]c3ccccc23)NC(=O)[C@H](Cc2ccccc2)NC(=O)[C@H](Cc2ccccc2)NC(=O)[C@H](CC(N)=O)NC(=O)[C@H](CCCCN)NC1=O [Comparative Example 15, SRIF(1-14)-NH2, reference compound]" assay_value=0

====

Test: Plasma stability of somatostatin peptide complex (remaining rate in rat plasma)
Conditions: SD, rat, plasma
Measurement label: remaining at 48 h, 0.5 μmol/L (%)

compound="C[C@H](N)C(=O)NCC(=O)N[C@H]1CSSC[C@@H](C(N)=O)NC(=O)[C@H](CO)NC(=O)[C@H]([C@@H](C)O)NC(=O)[C@H](Cc2ccccc2)NC(=O)[C@H]([C@@H](C)O)NC(=O)[C@H](CCCCN)NC(=O)[C@H](Cc2c[nH]c3ccccc23)NC(=O)[C@H](Cc2ccccc2)NC(=O)[C@H](Cc2ccccc2)NC(=O)[C@H](CC(N)=O)NC(=O)[C@H](CCCCN)NC1=O [Comparative Example 15, SRIF(1-14)-NH2, reference compound]" measurement_label="remaining at 48 h, 0.5 μmol/L" assay_value=0
